Biological target: MYLK (human)
Test: radiometric filter-binding kinase assay
Details: compound 0.1 µM
REPORTED_ENDPOINT: residual activity (%)
Give bare numbers, in %.

Below are worked cases with known answers.
- CN(C)C/C=C/C(=O)Nc1cccc(C(=O)Nc2ccc(Nc3nccc(-c4cccnc4)n3)cc2)c1: 96
- CNc1nc(-c2ccc3c(N)n[nH]c3c2)cc(N2C[C@@H](C(=O)NC3CCCCC3)CC[C@H]2C)n1: 113
- COc1ccc2c(c1)c1c3c(c4c5ccccc5n(C)c4c1n2CC(O)CN(C)C)C(=O)NC3=O (configuration not stated): 15
- CNC(=O)C1[C@H]2O[C@@](C)([C@@H]1N)n1c3ccccc3c3c4c(c5c6ccccc6n2c5c31)C(=O)NC4 (some centres not stated): 4
- C/C(=C1/C(=O)Nc2ccc(NC(N)=O)cc21)c1ccc[nH]1: 65
- NC(=O)c1cc2c(-c3cccc(-c4ccccc4)c3)cnc(N)c2s1: 98
- NC(=O)c1cc(-c2ccnc(NC3CCCCC3)c2)nc(N2CCNCC2)c1: 85
- CCCCCc1ccc(/C=C/[C@H](O)[C@@H](CO)NC)cc1: 90
- CCn1c(-c2nonc2N)nc2cncc(CNC3CCNCC3)c21: 104
- O=C(Nc1nc2cc(C(F)(F)F)cc(NC3CC3)n2n1)c1cccnc1: 93

Working through the 5 molecules below one at a time, give residual activity for each.
1. O=C(NCCCNc1nc(Nc2cccc(CN3CCOCC3)c2)ncc1C1CC1)C1CCC1
2. COc1cc(O)c2c(c1)[C@H]1OC1C[C@H](O)[C@H](O)C(=O)/C=C\C[C@H](C)OC2=O (some centres not stated)
3. NC(=O)Nc1ccc2c(c1)/C(=C/c1cc(-c3cccnc3)c[nH]1)C(=O)N2
4. Cc1ccc(Sc2cnc(Nc3cccc(Br)n3)s2)cc1C(=O)N1CCN(C(=O)CN)CC1
5. c1ccc2c(-c3cnn4cc(-c5ccc(N6CCNCC6)cc5)cnc34)ccnc2c1

A:
87
102
54
51
104

Working through the 7 molecules below one at a time, give residual activity for each.
1. Cn1c(=O)c2c(ncn2C)n(C)c1=O
2. O=C(N[C@@H](COc1ccc2[nH]c(=O)[nH]c2c1)c1ccccc1)c1cccn(Cc2ccc(F)c(F)c2)c1=O
3. NC1(c2ccc(-c3nc4ccn5c(=O)[nH]nc5c4cc3-c3ccccc3)cc2)CCC1
4. COc1cc(O)c2c(c1)/C=C/C[C@H](O)[C@H](O)C(=O)/C=C\C[C@H](C)OC2=O
5. O=C(Nc1ccccc1-c1cn2c(CN3CCNCC3)csc2n1)c1cnc2ccccc2n1
6. COc1ccc(N(C(=O)Nc2c(C)cccc2C)c2cc(Nc3ccc(N4CCN(C)CC4)cc3)ncn2)c(OC)c1
7. CCc1cncnc1N1CCN(Cc2nc3cc(C(F)(F)F)ccc3[nH]2)CC1

A:
1: 90; 2: 97; 3: 87; 4: 108; 5: 82; 6: 89; 7: 95

###

Test system: ROCK2 (rat)
Experiment: radiometric filter-binding kinase assay
Details: compound 10.0 µM; accession and sequence are those of the human protein
REPORTED_ENDPOINT: residual activity (%)
Give bare numbers, in %.

• NC(=O)c1cc(-c2ccnc(NC3CCCCC3)c2)nc(N2CCNCC2)c1 = 51
• CCc1cncnc1N1CCN(Cc2nc3cc(C(F)(F)F)ccc3[nH]2)CC1 = 58
• Cc1cc(SCc2sc(-c3ccc(C(F)(F)F)cc3)nc2C)ccc1OCC(=O)O = 91
• COC(=O)/C=C/C(=O)OC = 81
• CCCCCc1ccc(/C=C/[C@H](O)[C@@H](CO)NC)cc1 = 116

Working through the 4 compounds below one at a time, give residual activity for each.
1. O=S(=O)(c1ccc(F)c2nonc12)N1CCN(c2ncc(C(F)(F)F)cc2Cl)CC1
2. NC(=O)Nc1ccc2c(c1)/C(=C/c1cc(-c3cccnc3)c[nH]1)C(=O)N2
3. O=C1NC(=S)N[C@@H]1Cc1c[nH]c2ccccc12
4. NC1(c2ccc(-c3nc4ccn5c(=O)[nH]nc5c4cc3-c3ccccc3)cc2)CCC1

A:
1: 95; 2: 7; 3: 96; 4: 91

Working through the 2 compounds below one at a time, give residual activity for each.
1. NC(=O)c1cc2c(-c3cccc(-c4ccccc4)c3)cnc(N)c2s1
2. O=C1Nc2nc(-c3c(O)cccc3OCC3CC3)cc(C3CCCNC3)c2CO1 (stereo unspecified)

A:
[7, 39]

Measured values drawn from the kinase profiling compilation of Christmann-Franck et al. (2016) for this set.
